// reported melting point for each item listed

MOLECULE	melting point
Cc1cc(F)ccc1Oc1nc(Nc2ccc(-c3ccncc3)cc2)nn1C(C)C	204.1 to 205.4 °C

Give its melting point value. Item: COc1ccc(-c2ccc(Nc3nc(Oc4ccc(F)cc4C)n(C(C)C)n3)cc2)cn1
142.7 to 144.7 °C

And what about the molecule COc1cc(Nc2nc(N3CCCC(C(F)(F)F)C3)n(C(C)C)n2)ccc1-n1cnc(C)n1 (racemic) [Compound 59] ?
134 °C

And what about the molecule COc1cc(Nc2nc(Oc3ccccc3Cl)n(C(C)C)n2)ccc1-n1cnc(C)c1 ?
167.1 °C

And what about the molecule COc1cc(Nc2nc(Oc3ccc(F)cc3C(F)(F)F)n(C(C)C)n2)ccc1-c1ccnc(C)c1 ?
134.8 °C

And what about the molecule COc1cc(-c2ccc(Nc3nc(Oc4ccc(F)cc4C)n(C(C)C)n3)cc2)ccn1 ?
132.8 to 143.6 °C

And what about the molecule COc1cc(Nc2nc(N3CCCC(C(F)(F)F)C3)n(C(C)C)n2)ccc1-n1cnc(C)c1 (stereo not shown) ?
173 °C

And what about the molecule COc1cc(Nc2nc(Oc3cccc(N4CCOCC4)c3)n(C(C)C)n2)ccc1-c1ccnc(C)c1 ?
169.3 °C

And what about the molecule Cn1nc(Nc2ccc(-c3ccncc3)cc2)nc1-c1cccc(C(F)(F)F)c1 ?
220.7 °C

And what about the molecule COc1cc(Nc2nc(-c3cccc(C(F)(F)F)c3)n(C(C)C)n2)ccc1-n1cnc(C)c1 ?
186.8 °C
